Test system: Escherichia coli
Experiment: Antimicrobial activity against rifampicin-resistant Escherichia coli A15 transconjugant expressing beta-lactamase SHV-12 by Etest
Assay type: functional
Field 'label' (enum: 1 / -1). Set to 1 when MIC is strictly under 1 µg/mL; else -1.

## Task Please check: MIC for `CN(C)[C@@H]1C(O)=C(C(N)=O)C(=O)[C@@]2(O)C(O)=C3C(=O)c4c(O)cccc4[C@@](C)(O)[C@H]3C[C@@H]12` , strictly under 1 µg/mL or not?
## Result -1

## Task Please check: MIC for `CO/N=C(\C(=O)N[C@@H]1C(=O)N2C(C(=O)[O-])=C(C[N+]3(C)CCCC3)CS[C@H]12)c1csc(N)n1` , strictly under 1 µg/mL or not?
## Result 1

## Task Please check: MIC for `CC1(C)S[C@@H]2[C@H](NC(=O)[C@H](N)c3ccccc3)C(=O)N2[C@H]1C(=O)O` , strictly under 1 µg/mL or not?
## Result -1

## Task Please check: MIC for `C[C@@H](O)[C@H]1C(=O)N2C(C(=O)O)=C(S[C@@H]3CN[C@H](C(=O)N(C)C)C3)[C@H](C)[C@H]12` , strictly under 1 µg/mL or not?
## Result 1

## Task Please check: MIC for `CO/N=C(\C(=O)N[C@@H]1C(=O)N2C(C(=O)O)=C(COC(C)=O)CS[C@H]12)c1csc(N)n1` , strictly under 1 µg/mL or not?
## Result -1

## Task Please check: MIC for `CN(C)c1cc(NC(=O)CNC(C)(C)C)c(O)c2c1C[C@H]1C[C@H]3[C@H](N(C)C)C(O)=C(C(N)=O)C(=O)[C@@]3(O)C(O)=C1C2=O` , strictly under 1 µg/mL or not?
## Result 1

## Task Please check: MIC for `CC(C)(O/N=C(\C(=O)N[C@@H]1C(=O)N2C(C(=O)[O-])=C(C[n+]3ccccc3)CS[C@H]12)c1csc(N)n1)C(=O)O` , strictly under 1 µg/mL or not?
## Result -1

## Task Please check: MIC for `CCN1CCN(C(=O)N[C@@H](C(=O)N[C@@H]2C(=O)N3[C@@H]2SC(C)(C)[C@@H]3C(=O)O)c2ccccc2)C(=O)C1=O` , strictly under 1 µg/mL or not?
## Result -1

## Task Please check: MIC for C[C@@H](O)[C@H]1C(=O)N2C(C(=O)O)=C(SCCNC=N)C[C@H]12 [IMIPENEM ANHYDROUS] , strictly under 1 µg/mL or not?
## Result 1
